pEC50 by entry:
- System: Human coronavirus NL63
- experimental.protocol: Antiviral activity against HCoV-NL63 infected in Rhesus monkey LLC-MK2 cells at a MOI of 0.01 assessed as inhibition of viral replication measured after 120 hrs by MTS assay
- Format: functional, organism-based
- protocol.conditions: Human coronavirus NL63, LLC-MK2, 120 h
The quantity pEC50 is defined as the negative base-10 logarithm of the molar concentration.

# compound, pEC50
measured = [
    ("CCC(CC)COC(=O)[C@H](C)N[P@](=O)(OC[C@H]1O[C@@](C#N)(c2ccc3c(N)ncnn23)[C@H](O)[C@@H]1O)Oc1ccccc1", 5.57),
    ("CC(C)(C)OC(=O)N1CCC[C@H]1C(=O)Nc1nc(N)ccc1/N=N/c1ccccc1", 5.52),
]

Attention now shifts to the item below.
Query block: Answer with the recorded pEC50 of Cl.Nc1ccc(/N=N/c2ccccc2)c(N)n1 [PHENAZOPYRIDINE HYDROCHLORIDE] only.
Result block: 5.26

* * *

- experimental.protocol: Selectivity index, ratio of CC50 for cytotoxicity against HEK293T cells assessed as inhibition of cell growth to EC50 for antiviral activity against SARS-CoV-2 infected in HEK293T cells assessed as inhibition of SARS-CoV-2 RdRp
- Format: toxicity, cell-based
- protocol.conditions: human, read-out: Ratio CC50/EC50
test.readout: selectivity ratio

# compound, test.readout, result
data = [
    ("C[C@H](NC(=O)OC(C)(C)C)C(=O)Nc1nc(N)ccc1/N=N/c1ccccc1", "selectivity ratio", 70.4),
    ("Nc1ccc(/N=N/c2ccccc2)c(NC(=O)[C@@H](N)Cc2c[nH]c3ccccc23)n1", "selectivity ratio", 50),
    ("CSCC[C@H](NC(=O)OC(C)(C)C)C(=O)Nc1nc(N)ccc1/N=N/c1ccccc1", "selectivity ratio", 75.2),
    ("CC(C)(C)OC(=O)N1CCC[C@H]1C(=O)Nc1nc(N)ccc1/N=N/c1ccccc1", "selectivity ratio", 6.64),
]

// switching to the query compound
Query block: Identify measured selectivity ratio associated with Cl.Nc1ccc(/N=N/c2ccccc2)c(N)n1 [PHENAZOPYRIDINE HYDROCHLORIDE]
Result block: > 13.6

* * *

- experimental.target: Replicase polyprotein 1ab (Severe acute respiratory syndrome coronavirus 2, UniProt P0DTD1)
- experimental.protocol: Binding affinity to SARS-CoV-2 nsp12 expressed in Escherichia coli BL21 (DE3) cells using biotinylated EZ-link NHS-LC-LC assessed as dissociation constant at 6.25 to 100 uM incubated for 180 sec by BLI assay
test.readout: pKd
Reminder that pKd means the negative base-10 logarithm of the concentration expressed in mol/L.

# compound, numeric.readout
rows = [
    ("Cl.Nc1ccc(/N=N/c2ccccc2)c(N)n1 [PHENAZOPYRIDINE HYDROCHLORIDE]", 5.30),
]

Query block: Recall and state the measured pKd for CC(C)(C)OC(=O)N1CCC[C@H]1C(=O)Nc1nc(N)ccc1/N=N/c1ccccc1 .
Result block: 5.62

* * *

- System: Human coronavirus OC43
- experimental.protocol: Antiviral activity against HCoV-OC43 infected in human HCT-8 cells at a MOI of 0.1 assessed as inhibition of viral replication measured after 5 days by MTS assay
- Format: functional, organism-based
- protocol.conditions: Betacoronavirus 1, HCT-8, 120 h
Each entry below carries its reported EC50.
Response body: numeric value in nM, unit text excluded.

Would you please look over these solved cases?
# compound, numeric.readout
rows = [
    ("Cl.Nc1ccc(/N=N/c2ccccc2)c(N)n1 [PHENAZOPYRIDINE HYDROCHLORIDE]", 4690),
    ("CC(C)(C)OC(=O)N1CCC[C@H]1C(=O)Nc1nc(N)ccc1/N=N/c1ccccc1", 1430),
]

Query block: Given CCC(CC)COC(=O)[C@H](C)N[P@](=O)(OC[C@H]1O[C@@](C#N)(c2ccc3c(N)ncnn23)[C@H](O)[C@@H]1O)Oc1ccccc1 , respond with its EC50.
Result block: 1890
